tested on: OVCAR-5 complex spheroids, viability; test: Anticancer human tumor OVCAR-5 cell line growth inhibition; settings: second compound 3.16 µM; first compound 0.03 µM; active = viability on the fitted dose curve at most 10% of control; inactive = the rest;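 also: spheroids exposed to agents for seven days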
# valid calls are active, inactive; nothing else

For this molecule, state the assay outcome: O=C(C=Cc1cccc(S(=O)(=O)Nc2ccccc2)c1)NO + NC1CCC(NC2CC2c2ccccc2)CC1 inactive

For this molecule, state the assay outcome: CCN(c1cc(-c2ccc(CN3CCOCC3)cc2)cc(C(=O)NCc2c(C)cc(C)[nH]c2=O)c1C)C1CCOCC1 + NC1CC1c1ccc(-c2cccc(O)c2)cc1 inactive

For this molecule, state the assay outcome: CCN(c1cc(-c2ccc(CN3CCOCC3)cc2)cc(C(=O)NCc2c(C)cc(C)[nH]c2=O)c1C)C1CCOCC1 + NC1CCC(NC2CC2c2ccccc2)CC1 inactive

For this molecule, state the assay outcome: O=C(C=Cc1cccc(S(=O)(=O)Nc2ccccc2)c1)NO + NC1CC1c1ccc(-c2cccc(O)c2)cc1 inactive

For this molecule, state the assay outcome: CCc1c2c(nc3ccc(O)cc13)-c1cc3c(c(=O)n1C2)COC(=O)[C@]3(O)CC + NC1CCC(NC2CC2c2ccccc2)CC1 active

For this molecule, state the assay outcome: Nc1ncn(C2CC(O)C(CO)S2)c(=O)n1 (stereo not drawn) + NC1CCC(NC2CC2c2ccccc2)CC1 inactive

For this molecule, state the assay outcome: COc1cc(C2c3cc4c(cc3C(OC3OC5COC(C)OC5C(O)C3O)C3COC(=O)C23)OCO4)cc(OC)c1O (stereo not drawn) + NC1CCC(NC2CC2c2ccccc2)CC1 inactive

For this molecule, state the assay outcome: Nc1ccn(C2OC(CO)C(O)C2(F)F)c(=O)n1 (stereo not drawn) + NC1CCC(NC2CC2c2ccccc2)CC1 inactive
